meta.source: patent US6534491B2

Record set of IC50 for target or system TACE (Homo sapiens).
assay endpoint: IC50 (nM)

{"columns": ["smi", "assay endpoint", "test value"],
 "data": [
  ["COc1ccc(S(=O)(=O)N(C)c2c(C(=O)NO)cnc3c(Br)cccc23)cc1", "IC50", 80],
  ["COc1ccc(S(=O)(=O)N(Cc2cccnc2)c2c(C(=O)NO)cnc3onc(C)c23)cc1", "IC50", 147],
  ["COc1ccc(S(=O)(=O)N(Cc2cccnc2)c2c(C(=O)NO)cnc3c(Br)cccc23)cc1", "IC50", 124],
  ["COc1ccc(S(=O)(=O)N(Cc2cccnc2)c2c(C(=O)NO)cnc3c(-c4ccccc4)cccc23)cc1", "IC50", 120]
]}
